Tested on: COLO 205 colon
Test: NCI-60 one-dose screen, 48 h
Conditions: 10 µM unless noted
Compounds without any hit were thinned out: in the full panel of roughly 83,000, 20% have a hit. The source made the active and inactive calls. How the source made its calls: active means growth percent below 10; inactive means the rest.
Output constraint: value belongs to 1 = active, -1 = inactive

compound	discrete-label
COC(=O)c1n[nH]c2ccc3nc(-c4cn[nH]c4C(F)(F)F)c4c(c3c12)CCCC4	1
CO[C@]12C=C/C(=C(/C(=O)OCc3cccnc3)C(=O)CCCCCCCC[C@@]3(OC)C=C/C(=C(/C(=O)OCc4cccnc4)C(=O)CCCCCCCC1)O3)O2	1

Inquiry: Name the outcome recorded for Oc1ccc(CCn2c(O)c(/C=C3\CN=c4ccccc4=N3)sc2=S)cc1 in the assay.
Reply text: -1

Inquiry: // same read-out, input: COc1ccc(/C(C)=C(/c2ccc(OCCCN(C)C)cc2)c2ccc(OC(=O)Cc3ccccc3)cc2)cc1
Reply text: -1
